This collection of values is drawn from the supplement of paper PMC13207355.

- System: E13 (patient-derived glioblastoma stem cells of classical subtype)
- assay-explanation: surviving fraction (nuclei count normalised to DMSO); higher = more cells surviving (less toxic);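 note: nuclei counted by high-content imaging of Hoechst-stained cells in laminin-coated 384-well plates, relative to 0.1% DMSO vehicle wells, with staurosporine as cell-death control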
- test-settings: 3000 nM; exposure time: 72 h
measurement-name: surviving fraction
Answers are plain numbers.

compound	reported-measurement
C[C@H]1Oc2cc(cnc2N)-c2c(nn(C)c2C#N)CN(C)C(=O)c2ccc(F)cc21	1.01

Give one value of surviving fraction per listed compound.
1. O=C(O)c1ccc(-c2c[nH]c3ncc(-c4ccccc4)cc23)cc1C1CCCC1
2. COC(=O)Nc1nc2cc(C(=O)c3ccccc3)ccc2[nH]1
3. CC(=O)O[C@H]1C[C@H](O[C@H]2[C@@H](O)C[C@H](O[C@H]3[C@@H](O)C[C@H](O[C@H]4CC[C@@]5(C)[C@H](CC[C@@H]6[C@@H]5C[C@@H](O)[C@]5(C)[C@@H](C7=CC(=O)OC7)CC[C@]65O)C4)O[C@@H]3C)O[C@@H]2C)O[C@H](C)[C@H]1O[C@@H]1O[C@H](CO)[C@@H](O)[C@H](O)[C@H]1O [Lanatoside C]
4. CC1CNc2c(cccc2S(=O)(=O)N[C@@H](CCCNC(=N)N)C(=O)N2CC[C@@H](C)C[C@@H]2C(=O)O)C1 (stereo not given in full)
5. C[C@@H](Oc1cc(-c2cnn(C3CCNCC3)c2)cnc1N)c1c(Cl)ccc(F)c1Cl

Result:
1: 0.413; 2: 0.221; 3: 0.245; 4: 1.04; 5: 0.482

###

- System: FT3469 (normal neural stem cell line)
- assay-explanation: surviving fraction (nuclei count normalised to DMSO); higher = more cells surviving (less toxic)
- test-settings: 3000 nM; exposure time: 72 h
Structures can show the parent of a compound that is named as a salt.
measurement-name: surviving fraction
Numbers only.

Below are worked cases with known answers.
>>> print(df.to_string())
                                   compound    measurement_name  reported_measurement
0  CCC[C@@H]1C[C@@H](C(=O)N[C@@H]([C@H]2O[C@H](SC)[C@H](O)[C@@H](O)[C@H]2O)[C@@H](C)O)N(C)C1 [Lincomycin hydrochloride]  surviving fraction                  1.08
1  CC(C)C[C@H](NC(=O)[C@H](Cc1ccccc1)C[C@@H](O)[C@H](Cc1ccccc1)NC(=O)OC(C)(C)C)C(=O)N[C@@H](Cc1ccccc1)C(N)=O [L-685,458]  surviving fraction                 0.838

Now look at this entry.
Ask: Quick one: surviving fraction of CC(=O)OC[C@H]1O[C@@H]([S-])[C@H](OC(C)=O)[C@@H](OC(C)=O)[C@@H]1OC(C)=O.CCP(CC)CC.[Au+] [Auranofin] ?
Result: 0.0719

###

- Tested on: E13
- assay-explanation: surviving fraction (nuclei count normalised to DMSO); higher = more cells surviving (less toxic)
- test-settings: 333.3 nM; exposure time: 72 h
Where a name gives a salt, the structure may show the parent alone.
For each of the compounds below, state its surviving fraction.

Consider the worked cases shown below.
compound	surviving fraction
C=C(C)[C@H]1Cc2c(ccc3c2O[C@@H]2COc4cc(OC)c(OC)cc4[C@@H]2C3=O)O1	0.632
CC[C@]1(O)C[C@@H]2CN(CCc3c([nH]c4ccccc34)[C@@](C(=O)OC)(c3cc4c(cc3OC)N(C)[C@H]3[C@@](O)(C(=O)OC)[C@H](OC(C)=O)[C@]5(CC)C=CCN6CC[C@]43[C@@H]65)C2)C1 [Vinblastine sulfate]	0.171
CC(C)NCC(O)COc1cccc2ccccc12 (centres undefined) [Propranolol hydrochloride]	1.1

Please turn your attention to the following entry.
Ask: Can you look up the measured surviving fraction of COc1nc(C)nc(Cl)c1NC1=NCCN1 for me?
Result: 0.908
